Record type: Ki measurement. Applies to: Adenosine receptor A2a (Rattus norvegicus)
One number for each entry, in µM.

Past entries and their recorded results:
C#CCn1c(=O)[nH]c2nc(-c3cccs3)[nH]c2c1=O = 5.1
C#CCn1c(=O)c2c(nc(/C=C/c3cccc(Cl)c3)n2C)n(C)c1=O = 0.047
C#CCn1c(=O)c2c(nc(/C=C/c3ccccc3)n2C)n(C)c1=O = 0.14
C#CCn1c(=O)c2[nH]c(/C=C/c3cccc(Cl)c3)nc2n(C)c1=O = 0.41
C#CCn1c(=O)c2c(nc(-c3ccccc3)n2C)n(C)c1=O = 6.4
C#CCn1c(=O)c2[nH]cnc2n(C)c1=O = 4.8
Cn1c(=O)c2c(nc(-c3ccccc3)n2C)n(C)c1=O = 25

Return value of Ki for input C#CCn1c(=O)[nH]c2[nH]c(/C=C/c3ccccc3)nc2c1=O , no commentary.
1.9

###

biological target: Adenosine receptor A1 (Rattus norvegicus, UniProt P25099); test: Ability to inhibit binding of [3H]CHA to adenosine A1 receptor in rat brain cortical membranes.; type: cell membranes, Membrane
For each entry below, report its pKi value.
Answers are plain numbers, as −log10 of the molar value.

Past entries and their recorded results:
C#CCn1c(=O)c2c(nc(/C=C/c3ccc(OC)c(OC)c3)n2C)n(C)c1=O = 5.60
C=CCn1c(=O)c2c(nc(/C=C/c3ccccc3)n2C)n(C)c1=O = 5.04
C#CCn1c(=O)c2c(nc(/C=C/c3ccccc3)n2C)n(C)c1=O = 5.96

Report pKi for each item below.
1. C#CCn1c(=O)c2c(nc(/C=C/c3cccc(Cl)c3)n2C)n(C)c1=O
2. C#CCn1c(=O)c2[nH]c(/C=C/c3cccc(Cl)c3)nc2n(CC(C)C)c1=O

[5.89, 7.08]

###

molecular target: Adenosine receptor A2a (Rattus norvegicus)
Sequence (P30543 whole entry): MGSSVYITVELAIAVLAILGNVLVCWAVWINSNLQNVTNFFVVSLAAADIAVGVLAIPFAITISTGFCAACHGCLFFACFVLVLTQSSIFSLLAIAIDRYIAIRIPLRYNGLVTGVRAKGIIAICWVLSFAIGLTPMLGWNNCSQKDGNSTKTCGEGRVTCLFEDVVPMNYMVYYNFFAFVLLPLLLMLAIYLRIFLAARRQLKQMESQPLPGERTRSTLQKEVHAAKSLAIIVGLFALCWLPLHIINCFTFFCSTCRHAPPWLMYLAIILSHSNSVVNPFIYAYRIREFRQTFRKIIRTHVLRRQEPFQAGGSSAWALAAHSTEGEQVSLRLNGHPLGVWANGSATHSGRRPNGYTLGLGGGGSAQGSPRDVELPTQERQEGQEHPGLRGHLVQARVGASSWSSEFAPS
For each entry below, report its pKi value.
Give bare numbers, as −log10 of the molar value.

Past entries and their recorded results:
C#CCn1c(=O)c2c(nc(/C=C/c3cccc(Cl)c3)n2C)n(C)c1=O = 7.89
COc1ccc(/C=C/c2nc3c(c(=O)n(C)c(=O)n3C)n2C)cc1OC = 7.74
CC(C)Cn1c(=O)n(C)c(=O)c2c1nc(-c1ccccc1)n2C = 4.85
C#CCn1c(=O)c2c(nc(/C=C/c3cccc(Cl)c3)n2C)n(CC(C)C)c1=O = 7.82

Please turn your attention to the following entry.
Return value of pKi for input C#CCn1c(=O)c2c(nc(/C=C/c3ccc(OC)c(OC)c3)n2C)n(C)c1=O , no commentary.
7.82

###

biological target: Adenosine receptor A2a (Rattus norvegicus)
For each entry below, report its Ki value.
Just so you know, I need the unit written after the number.

Past entries and their recorded results:
C#CCn1c(=O)[nH]c2nc(-c3cccs3)[nH]c2c1=O = 560 nM
C#CCn1c(=O)c2[nH]c(/C=C/c3ccc4c(c3)OCO4)nc2n(C)c1=O = 170 nM
C#CCn1c(=O)c2[nH]c(/C=C/c3cccc(Cl)c3)nc2n(CC(C)C)c1=O = 46 nM
C#CCn1c(=O)c2c(nc(C3CCCCC3)n2C)n(C)c1=O = 4500 nM
CCCn1c(=O)c2c(nc(/C=C/c3cccc(Cl)c3)n2C)n(C)c1=O = 31 nM
C#CCn1c(=O)c2c(nc(/C=C/c3cccc(Cl)c3)n2CC#C)n(C)c1=O = 61 nM
C#CCn1c(=O)c2c(nc(/C=C/c3cccc(Br)c3)n2C)n(C)c1=O = 8.2 nM
Cn1c(=O)c2c(nc(-c3ccccc3)n2C)n(C)c1=O = 19000 nM
C=CCn1c(=O)c2c(nc(/C=C/c3ccccc3)n2C)n(C)c1=O = 63 nM
C#CCn1c(=O)c2c(nc(/C=C/c3ccccc3)n2C)n(C)c1=O = 27 nM

Report Ki for each item below.
1. C#CCn1c(=O)c2c(nc(/C=C/c3ccco3)n2C)n(C)c1=O
2. C#CCn1c(-c2ccccc2)nc2c1c(=O)n(C)c(=O)n2CC(C)C
3. C#CCn1c(=O)c2c(nc(/C=C/c3ccc4c(c3)OCO4)n2C)n(C)c1=O

1: 250 nM; 2: 3500 nM; 3: 35 nM

Report Ki for each item below.
1. C#CCn1c(=O)c2c(nc(-c3ccccc3)n2C)n(C)c1=O
2. C#CCn1c(=O)c2[nH]cnc2n(Cc2ccccc2)c1=O
3. C#CCn1c(=O)c2c(nc(/C=C/c3cccc(Cl)c3)n2C)n(Cc2ccccc2)c1=O
4. C#CCn1c(=O)c2c(nc(/C=C/c3cccc(Cl)c3)n2C)n(CCC)c1=O
5. C#CCn1c(=O)[nH]c2[nH]c(/C=C/c3ccccc3)nc2c1=O
6. C#CCn1c(=O)c2c(nc(-c3cccs3)n2C)n(C)c1=O
7. C#CCn1c(=O)c2c(ncn2C)n(C)c1=O

["3300 nM", "880 nM", "68 nM", "5.1 nM", "310 nM", "1800 nM", "8600 nM"]

Report Ki for each item below.
1. C#CCn1c(=O)c2c(nc(/C=C/c3cccs3)n2C)n(C)c1=O
2. C#CCn1c(=O)c2c(nc(/C=C/c3ccsc3)n2C)n(C)c1=O

["340 nM", "24 nM"]

###

Target: Adenosine receptor A1 (Rattus norvegicus, UniProt P25099)
Sequence (P25099 whole entry): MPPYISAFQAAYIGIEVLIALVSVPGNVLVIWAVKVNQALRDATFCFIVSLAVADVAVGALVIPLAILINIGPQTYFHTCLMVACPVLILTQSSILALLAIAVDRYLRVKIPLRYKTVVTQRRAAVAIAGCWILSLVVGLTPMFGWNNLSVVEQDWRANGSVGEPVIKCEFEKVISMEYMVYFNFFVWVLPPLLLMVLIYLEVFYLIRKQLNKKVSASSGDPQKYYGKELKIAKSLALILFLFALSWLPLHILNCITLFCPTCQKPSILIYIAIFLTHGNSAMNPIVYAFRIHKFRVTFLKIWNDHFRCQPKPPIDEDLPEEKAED
Test: Ability to inhibit binding of [3H]CHA to adenosine A1 receptor in rat brain cortical membranes.
Format: cell membranes, Membrane
property_label: pKi
Numbers only, as −log10 of the molar value.

Report pKi for each item below.
1. C#CCn1c(=O)c2c(nc(/C=C/c3cccc(Cl)c3)n2C)n(Cc2ccccc2)c1=O
2. C#CCn1c(=O)[nH]c2nc(-c3cccs3)[nH]c2c1=O
3. C#CCn1c(=O)c2c(nc(-c3ccccc3)n2C)n(C)c1=O
4. Cn1c(=O)c2c(nc(-c3ccccc3)n2C)n(C)c1=O
5. C#CCn1c(=O)c2c(nc(/C=C/c3cccs3)n2C)n(C)c1=O
6. CCCn1c(=O)c2c(nc(/C=C/c3cccc(Cl)c3)n2C)n(C)c1=O

1. 5.64
2. 6.74
3. 5.49
4. 4.48
5. 5.39
6. 6.27

###

target: Adenosine receptor A1 (Rattus norvegicus, UniProt P25099); assay: Ability to inhibit binding of [3H]R-PIA to Adenosine A1 receptor in rat brain cortical membranes; type: cell membranes, Membrane
For each entry below, report its pKi value.
Numbers only, as −log10 of the molar value.

C#CCn1c(=O)[nH]c2[nH]c(/C=C/c3ccccc3)nc2c1=O = 5.68

Report pKi for each item below.
1. C#CCn1c(=O)c2c(nc(/C=C/c3ccccc3)n2C)n(C)c1=O
2. C#CCn1c(=O)c2c(nc(/C=C/c3cccc(Cl)c3)n2C)n(C)c1=O

5.57
5.60

Report pKi for each item below.
1. C#CCn1c(=O)[nH]c2nc(-c3cccs3)[nH]c2c1=O
2. C#CCn1c(=O)c2[nH]c(/C=C/c3cccc(Cl)c3)nc2n(C)c1=O

[6.92, 6.60]

###

target: Adenosine receptor A1 (Rattus norvegicus, UniProt P25099); test: Ability to inhibit binding of [3H]CHA to adenosine A1 receptor in rat brain cortical membranes.; format: cell membranes, Membrane
# if measured Ki < 1 µM: rule met  # else: rule not met

Example cases with answers are listed next.
C#CCn1c(=O)c2c(nc(/C=C/c3cccc(Cl)c3)n2CC#C)n(C)c1=O = rule met
C#CCn1c(=O)c2c(nc(/C=C/c3cccc(Cl)c3)n2C)n(CCC)c1=O = rule met
CCCn1c(=O)c2c(nc(/C=C/c3ccc(OC)c(OC)c3)n2C)n(CCC)c1=O = rule met
C#CCn1c(=O)c2c(ncn2C)n(C)c1=O = rule not met
C#CCn1c(=O)c2c(nc(/C=C/c3cccc(Cl)c3)n2C)n(CC(C)C)c1=O = rule met
C#CCn1c(=O)c2[nH]cnc2n(Cc2ccccc2)c1=O = rule met
C#CCn1c(=O)c2[nH]c(/C=C/c3ccc4c(c3)OCO4)nc2n(C)c1=O = rule met
C#CCn1c(-c2ccccc2)nc2c1c(=O)n(C)c(=O)n2CC(C)C = rule not met

Find out if reported Ki for COc1ccc(/C=C/c2nc3c(c(=O)n(C)c(=O)n3C)n2C)cc1OC is less than 1 µM
rule not met

Find out if reported Ki for C#CCn1c(=O)c2c(nc(/C=C/c3ccc4c(c3)OCO4)n2C)n(C)c1=O is less than 1 µM
rule not met

Find out if reported Ki for CC(C)Cn1c(=O)n(C)c(=O)c2c1nc(-c1ccccc1)n2C is less than 1 µM
rule not met

Find out if reported Ki for C#CCn1c(=O)c2c(nc(/C=C/c3cccc(Br)c3)n2C)n(C)c1=O is less than 1 µM
rule not met
